TEST_NAME: Pharmacokinetic study in cynomolgus monkeys after oral (nasogastric) gavage, sublingual and intravenous administration
Type: in vivo
CONDITION_LABEL: both sexes, cynomolgus monkey, plasma, oral, 30 mg/kg, Plasma Bumetanide Dibenzylamide concentration, Mean, monkey, NG 30 mg/kg, First Formulation (Form 1), 1.00 h, N=4
RECORDED_ENDPOINT: concentration at 1 h (ng/mL)
Dear colleague, please return just the value in ng/mL, with no unit written.

The recorded concentration at 1 h for CCCCNc1cc(C(=O)N(Cc2ccccc2)Cc2ccccc2)cc(S(N)(=O)=O)c1Oc1ccccc1 [Bumetanide Dibenzylamide] is 13.2

---

TEST_NAME: Pharmacokinetic study in cynomolgus monkeys after oral (nasogastric) gavage, sublingual and intravenous administration
Format: in vivo
CONDITION_LABEL: both sexes, cynomolgus monkey, plasma, oral, 30 mg/kg, Plasma Bumetanide Dibenzylamide concentration, Mean, monkey, NG 30 mg/kg, First Formulation (Form 1), 8.00 h, N=4
RECORDED_ENDPOINT: concentration at 8 h (ng/mL)
Dear colleague, please return just the value in ng/mL, with no unit written.

The recorded concentration at 8 h for CCCCNc1cc(C(=O)N(Cc2ccccc2)Cc2ccccc2)cc(S(N)(=O)=O)c1Oc1ccccc1 [Bumetanide Dibenzylamide] is 44.9

---

TEST_NAME: Pharmacokinetic study in cynomolgus monkeys after oral (nasogastric) gavage, sublingual and intravenous administration
Format: in vivo
CONDITION_LABEL: cynomolgus monkey, plasma, other: sublingual, 5 mg/kg, Plasma Bumetanide Dibenzylamide concentration, Mean, monkey, SL, dose column 5 mg/kg (title 30 mg/kg), Fourth Formulation (Form 2), 1.0 h, N=4
Description: A pharmacokinetic study was done in cynomolgus monkeys following single oral (nasogastric) gavage, sublingual, and intravenous administration. […] Calibration curves, blanks, and analytical QCs were prepared in monkey plasma (K2EDTA). The extracts were evaporated to dryness, reconstituted, and then analyzed by LC-MS/MS. The calibration range was 0.250-250 ng/mL for both analytes. If the criteria for either the calibration curve or the analytical QCs were not met, the analytical run was rejected. […]
RECORDED_ENDPOINT: concentration at 1 h (µg/mL)
Dear colleague, please return just the value in µg/mL, with no unit written.

The recorded concentration at 1 h for CCCCNc1cc(C(=O)N(Cc2ccccc2)Cc2ccccc2)cc(S(N)(=O)=O)c1Oc1ccccc1 [Bumetanide Dibenzylamide] is 0

---

TEST_NAME: Pharmacokinetic study in cynomolgus monkeys after oral (nasogastric) gavage, sublingual and intravenous administration
Type: in vivo
CONDITION_LABEL: both sexes, cynomolgus monkey, plasma, oral, 30 mg/kg, Plasma Bumetanide Dibenzylamide concentration, Median, monkey, NG 30 mg/kg, Second Formulation (Form 3), 4.00 h, N=4
RECORDED_ENDPOINT: concentration at 4 h

The recorded concentration at 4 h for CCCCNc1cc(C(=O)N(Cc2ccccc2)Cc2ccccc2)cc(S(N)(=O)=O)c1Oc1ccccc1 [Bumetanide Dibenzylamide] is 194 ng/mL

---

TEST_NAME: Crossover pharmacokinetic study of Bumetanide Dibenzylamide formulations (IN, SL, IM, PO, SC, IR) in Beagle dogs, plasma LC-MS/MS
Assay type: in vivo
CONDITION_LABEL: both sexes, Beagle, dog, plasma, sc, 15 mg
RECORDED_ENDPOINT: AUC(0-inf) (ng·h/mL)
Dear colleague, please return just the value in ng·h/mL, with no unit written.

The recorded AUC(0-inf) for CCCCNc1cc(C(=O)N(Cc2ccccc2)Cc2ccccc2)cc(S(N)(=O)=O)c1Oc1ccccc1 [Bumetanide Dibenzylamide] is 231
